Where do the numbers come from? From PubChem BioAssay (NCI).

system: NCI-H23 lung; assay: NCI tumour cell line growth inhibition, 48 h
Below, each of the compounds is paired with its reported TGI value.
endpointLabel: TGI (µM)

C=C1C2CC[C@@](C)(O)C2[C@H]2OC(=O)C(=C)[C@@H]2C[C@H]1O (some centres not stated): 36
C[N+](C)(C)CC1CCc2ccccc2C1=O (configuration not stated): 29.2
COc1cc(C2c3cc4c(cc3[C@@H](NCCCN3CCCC3=O)C3COC(=O)[C@H]23)OCO4)cc(OC)c1O (some centres not stated): 32.2
COc1nc(SC)nc2c1C(O)n1c(nc3ccccc31)S2 (configuration not stated): 95.4
O=c1c2c3c(sc2n2c(CCl)nnc2n1Cc1ccccc1)CCCC3: 8.43
O=C1/C(=C/c2ccc(Cl)cc2)CCC/C1=C\c1ccc(O)c(CN2CCCCC2)c1: 49.1
Cc1cc(C)n(-c2nc3ccccc3c(=O)[nH]2)n1: 32.8
O=S(=O)(/N=C(\NO)Nc1ccc(Cl)cc1)c1cc2ccccc2o1: 48
CC12CC[C@@H]3c4cc5c(cc4CC[C@H]3[C@@H]1CCC2O)oc1cc(F)ccc15 (some centres not stated): 99.5
